# ASSAYED SYSTEM: recombinant human CK2 (Homo sapiens)
# Sequence (P68400 whole entry): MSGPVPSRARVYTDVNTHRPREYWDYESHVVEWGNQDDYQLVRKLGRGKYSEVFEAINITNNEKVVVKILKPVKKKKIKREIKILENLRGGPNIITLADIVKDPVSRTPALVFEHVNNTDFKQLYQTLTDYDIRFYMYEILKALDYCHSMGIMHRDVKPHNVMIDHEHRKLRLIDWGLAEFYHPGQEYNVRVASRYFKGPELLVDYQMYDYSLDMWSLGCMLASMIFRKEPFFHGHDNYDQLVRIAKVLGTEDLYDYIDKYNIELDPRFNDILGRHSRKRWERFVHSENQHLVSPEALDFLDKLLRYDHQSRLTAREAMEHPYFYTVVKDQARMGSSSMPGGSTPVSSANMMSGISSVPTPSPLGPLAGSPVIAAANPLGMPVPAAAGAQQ
# Sequence (P67870 whole entry partner): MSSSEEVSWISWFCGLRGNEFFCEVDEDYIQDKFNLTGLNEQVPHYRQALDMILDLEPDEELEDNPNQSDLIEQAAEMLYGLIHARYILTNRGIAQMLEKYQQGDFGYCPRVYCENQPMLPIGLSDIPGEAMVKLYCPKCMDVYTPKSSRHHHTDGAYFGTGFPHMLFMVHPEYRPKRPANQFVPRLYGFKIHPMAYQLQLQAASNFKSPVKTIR
# TEST DETAILS: CK2 Kinase Assay (33P-ATP, substrate peptide RRRDDDSDDD)
# DETAILS: final ATP concentration 15 μM, 10 min at 30° C.; read-out: protein kinase CK2 IC50
pIC50: −log10 of the molar value.
MEASURED METRIC: pIC50

> print(dat)
                      compound.structure  recorded.result
1  Clc1cccc(-n2c3ccncc3c3nc4cnccn4c32)c1             7.33

====

# Test system: H1299 (lung)
# TEST DETAILS: In vitro cytotoxic activity assay (MTT), H1299
# Assay type: cell-based
# DETAILS: Homo sapiens, NCI-H1299; H1299 (lung) cells, exposed for 96 hours; read-out: IC50, concentration eliciting 50% inhibition of cell proliferation
pIC50: −log10 of the molar value.
MEASURED METRIC: pIC50

> print(dat)
                      compound.structure  recorded.result
1  Clc1cccc(-n2c3ccncc3c3nc4cnccn4c32)c1             5.68
